Consider the following compounds and their measured Inhibition readings.
# System: Plasmodium falciparum
# procedureSummary: GSK_TCMDC: Inhibition of Plasmodium falciparum 3D7 in whole red blood cells, using parasite LDH activity as an index of growth. Test compounds present at 2uM
# Assay type: functional
The reply must contain the numeric value and, after it, the unit.

[[record]]
compound = "CCCCn1c(C(C)Oc2ccc(Cl)cc2Cl)nc2cc(S(N)(=O)=O)ccc21 (stereo not given)"
testsystem = "Plasmodium falciparum"
measurement = "94%"


For the compound shown here, Cc1c(C(C)(C)C)ccc2nc(N)nc(N)c12 , give the reported Inhibition.
89%

What do you have for O=C(NCCCCCN1CCC(c2c[nH]c3ccccc23)CC1)c1ccc(Cl)c(Cl)c1 ?
85%

Repeat with O=C1COc2ccc(CNC3CCC(O)(CCc4ccnc5cc6c(cc45)OCCO6)CC3)nc2N1 (stereo not given)
92%

Again, but for Cc1cccc2nc(-c3cccc(-c4ccc(CNCCNC(=O)c5ccnn5C)cc4)c3)[nH]c12.O=C(O)C(F)(F)F
100%

Data provenance: ChEMBL document CHEMBL1157539
